Test: Lipophilicity, log D of the compound
Details: octanol/water
assay metric: logD
Give the value as a plain number.

Example entries begin here.
{"molecule": "O=C(NCc1ccc(CN2CC[C@H](O)C2)cc1)c1csc2nc[nH]c(=O)c12", "logD": 0.37}
{"molecule": "OCC1CCCCN1c1nc(Nc2cc(C3CC3)[nH]n2)c2cn[nH]c2n1 (configuration not stated)", "logD": 2.85}
{"molecule": "CC(C)(O)[C@H](NC(=O)c1ccc(C#CC#CC2CC2)cc1)C(=O)NO", "logD": 2.3}
{"molecule": "Fc1ccc(COc2cccc(-c3n[nH]cc3-c3ccncc3)c2)cc1", "logD": 4.3}
{"molecule": "CC(C)(C)c1nc(-c2ccc3c(c2)OCCO3)c(-c2ccncc2)[nH]1", "logD": 3.22}
{"molecule": "N=C(N)SCc1ccc(Cl)c(Cl)c1", "logD": 1.4}

Read the next record carefully.
// returns reported logD for input Cn1nc(Nc2nc(N[C@H](CO)c3ccccc3)nc3[nH]ncc23)cc1C(C)(C)C
3.33
